Target: JAK1 JH1 catalytic (human)
Experiment: radiometric filter-binding kinase assay, Kinase HotSpot
Details: compound 0.5 µM; ATP 10 µM
Assignment: determine reported residual activity for the given compounds.
One number for each entry, in %.

• COc1ccc(OC)c2c(=S)c3ccccc3[nH]c12 = 102
• Cn1nc2c3c(cccc31)C(=O)c1ccccc1-2 = 110
• O=C(O)/C=C/c1cc(Br)c(Br)c(Br)c1Br = 98.8
• O=C1NC(=O)/C(=C\c2ccc3nccnc3c2)S1 = 103
• O=C1Nc2ccccc2/C1=C1\Nc2ccccc2\C1=N/O = 63.4
• CC(=O)O/N=C1\C(=C2\C(=O)Nc3cc(Br)ccc32)Nc2ccccc21 = 104

List residual activity for every entry below, keeping the order given.
1. O=C1NC(=O)C(c2c[nH]c3ccccc23)=C1c1c[nH]c2ccccc12
2. O=C(CCCc1ccc(-c2ccccc2F)cc1)Nc1ccc(O)cc1
3. CCN(CC)CCCCN1c2ccccc2Oc2ccc(Cl)cc21
4. O=C1Cc2c([nH]c3ccc(Br)cc23)-c2ccccc2N1
5. COc1cc2ncc(-c3ccccc3)nc2cc1OC
6. Cc1nc2cc3nc(-c4cccs4)cnc3cc2n1C
7. CN([C@@H](Cc1ccc(OS(=O)(=O)c2cccc3cnccc23)cc1)C(=O)N1CCN(c2ccccc2)CC1)S(=O)(=O)c1cccc2cnccc12

[101, 98.2, 105, 102, 91.5, 105, 108]
